Test: E. coli DRC41 culture turbidity changes, primary screen, E. coli filamentation inducer project, strain DRC41, OD650, 48 h (AID 1152);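 note: E. coli MC1000 strain DRC41 lacking acrAB efflux pump and sulA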
Settings: E. coli DRC41 (acrAB sulA), higher = more signal, called active from +8 up or from −8 down
Reported z-score values for a set of compounds
// keep it numeric: no unit symbol after the value

CC(C)(C)N1C(=O)[C@H]2[C@H]3[C@H](O)[C@H](O)CC(=NO[C@@H]4O[C@H](CO)[C@@H](O)[C@H](O)[C@H]4O)[C@H]3CC[C@H]2C1=O: -1.73
COc1ccc(O[C@H]2C=C[C@@H](c3ccccc3)O[C@@H]2COC(=O)CCC(C)=NOC(C)CN2CCCc3nc(C)c(C)cc32)cc1 (stereo partly drawn): -0.343

Request: I would be grateful if you could share the reported z-score for CC(C)CON=C1C[C@@H](O)[C@@H](O)[C@@H]2[C@@H]3C(=O)N(C(C)(C)C)C(=O)[C@@H]3CC[C@H]12 .
Response: 0.288

---

Target: E3 ubiquitin-protein ligase XIAP (Homo sapiens) (UniProt P98170)
Sequence (P98170 whole entry, looked up): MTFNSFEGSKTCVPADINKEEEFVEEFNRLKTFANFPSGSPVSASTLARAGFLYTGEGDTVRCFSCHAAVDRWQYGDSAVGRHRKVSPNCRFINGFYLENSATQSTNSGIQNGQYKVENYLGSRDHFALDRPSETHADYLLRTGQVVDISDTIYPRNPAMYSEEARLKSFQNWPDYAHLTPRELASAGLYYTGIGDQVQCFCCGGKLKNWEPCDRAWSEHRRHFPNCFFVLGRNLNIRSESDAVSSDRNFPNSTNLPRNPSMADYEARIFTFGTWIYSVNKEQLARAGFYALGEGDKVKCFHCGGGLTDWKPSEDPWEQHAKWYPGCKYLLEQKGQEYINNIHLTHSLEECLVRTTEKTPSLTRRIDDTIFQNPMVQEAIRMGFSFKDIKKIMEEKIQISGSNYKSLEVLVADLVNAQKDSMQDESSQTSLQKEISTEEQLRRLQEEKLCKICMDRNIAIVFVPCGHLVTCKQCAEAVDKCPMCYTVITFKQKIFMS
Test: XIAP binders, primary screen, biophysical, small-molecule microarray, fluorescence 635 nm (AID 1181);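 note: score merges 667 nm emission and signal to noise over triplicate slides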
Conditions: small-molecule microarray binding, higher = more signal
measuredEndpoint: composite z-score
API doc: respond with a numeric literal and nothing else, no unit.

CCOC(=O)[C@H](CC(C)C)NC(=O)CCC1CC(OC(=O)NCc2cccc3ccccc23)CC2(CCCC(COC(=O)NCC3CCCCC3)O2)O1 (some centres undefined): -0.0333
C=Cc1ccc([C@H]2N[C@H](C(=O)O)CC[C@@H]2C)cc1: -0.168
CO[C@H]1COC(=O)CC=C[C@H](C)[C@@H](OC)COC(=O)[C@@H](C)NC(=O)CC=C[C@@H]1C: -0.244

Request: Quick one: composite z-score for CC(=O)OC[C@H]1O[C@H](CCON=C2[C@H]3CCn4c(=O)n(-c5ccccc5)c(=O)n4[C@H]3[C@H](O)[C@@H]3O[C@H]23)C=C[C@@H]1OC(C)=O ?
Response: -0.148

---

Assay: binders of probe aFSTL3 on microarray, primary screen, stem cell growth factor project, biochemical, small-molecule microarray, fluorescence 635/667 (AID 1064);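 note: measures binding of the biotinylated anti-FSTL3 antibody to printed compounds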
Conditions: higher = more signal
Quick rule: composite z-score of at least -0.3 means yes (1), below that means no (0).

COc1cccc([C@H]2Oc3ccc(OC)cc3C(=NOC[C@@H](O)COCc3ccco3)[C@@H]2O)c1: no (0)
Cc1cc2c(nc1C)CCCCN2CC(C)ON=C1[C@H]2CCn3c(=O)n(-c4ccccc4)c(=O)n3[C@H]2[C@H](O)[C@@H]2O[C@H]12 (stereo partly specified): no (0)
C[C@@H](ON=C1[C@H]2CCn3c(=O)n(-c4ccccc4)c(=O)n3[C@H]2[C@H](O)[C@@H]2O[C@H]12)c1cn([C@@H]2COC[C@H]2O)nn1: no (0)

Request: Hi team, for O=C1CCCC=C1C(O)CCCCBr (stereo unspecified) , is the recorded composite z-score at or above -0.3?
Response: yes (1)

Request: Decide: composite z-score of CCOC(=O)[C@H](Cc1ccccc1)NC(=O)CCC1CC(OC(=O)NCCc2ccc(F)cc2)CC2(CCCC(COC(=O)NCC3CCCCC3)O2)O1 (stereo partly specified) >= -0.3?
Response: no (0)

Request: Could you tell me if the measured composite z-score of C[C@@H]1CC[C@H]2C(=O)O[C@@H](COc3ccc(C(C)(C)C)cc3)CN2[C@@H]1c1ccc(Br)cc1 reaches -0.3 or more?
Response: no (0)

Request: Quick check, composite z-score >= -0.3? COc1ccc(COC(=O)NN=C2C[C@@H](O)[C@@H](O)[C@@H]3[C@@H]4C(=O)N(Cc5ccccc5)C(=O)[C@@H]4CC[C@H]23)cc1
Response: yes (1)

Request: composite z-score >= -0.3 for CC(C)CON=C1C[C@@H](O)[C@@H](O)[C@@H]2[C@@H]3C(=O)N(C4CCCCC4)C(=O)[C@@H]3CC[C@@H]12 ?
Response: yes (1)

Request: Reported composite z-score at or above -0.3? CCN1C(=O)[C@@H]2[C@H]3C(=CC[C@@H]2C1=O)C1(OCCCO1)[C@H]1O[C@H]1[C@H]3O
Response: no (0)

Request: Hi team, for CC(C)CON=C1C[C@@H](O)[C@@H](O)[C@@H]2[C@@H]3C(=O)N(C(C)(C)C)C(=O)[C@@H]3CC[C@H]12 , is the recorded composite z-score at or above -0.3?
Response: yes (1)

Request: Record C#CCCCON=C1C[C@@H](O)[C@@H](O)[C@@H]2[C@@H]3C(=O)N(C(C)(C)C)C(=O)[C@@H]3CC[C@@H]12 ; criterion: composite z-score no lower than -0.3. Met?
Response: yes (1)

Request: Reported composite z-score reaches at least -0.3 for O=C1[C@H]2[C@H]3[C@H](O)[C@H](O)CC(=NOCc4ccccc4)[C@@H]3CC[C@H]2C(=O)N1c1ccc(F)cc1F ?
Response: yes (1)

Request: Say whether CCO[C@H](c1cc(OC)cc([N+](=O)[O-])c1OC)[C@H](C)C=CCC(=O)OC shows composite z-score of -0.3 or more.
Response: no (0)

Request: Threshold query (composite z-score >= -0.3) on O=C1OCCC=C1C(O)CCc1ccccc1 (stereo unspecified)
Response: yes (1)

---

Assay: CREB reporter modulators without forskolin, primary screen, cell-based, PC12, CRE-LacZ reporter, unstimulated (AID 1145)
Conditions: no forskolin, luminescence, 4.5 h, higher = more signal, called active from +8 up or from −8 down
The source made the active and inactive calls.
measuredEndpoint: z-score

O=C1C[C@@H](O)[C@@H](O)[C@@H]2[C@@H]3C(=O)N(Cc4ccc5c(c4)OCO5)C(=O)[C@@H]3CC[C@H]12: 0.516 (inactive)
CC(C)=CCCC(C)=CCON=C1C[C@@H](O)[C@@H](O)[C@@H]2[C@@H]3C(=O)N(C[C@@H]4CCCO4)C(=O)[C@@H]3CC[C@H]12: -0.384 (inactive)
CCOC(=O)NN=C1C[C@@H](O)[C@@H](O)[C@@H]2[C@@H]3C(=O)N(c4ccc(F)cc4F)C(=O)[C@@H]3CC[C@@H]12: -0.0211 (inactive)

Now examine the next entry.
Request: Param item = O=C1C=C[C@@H](O)[C@@H]2[C@@H]3C(=O)N(c4ccc(F)cc4F)C(=O)[C@@H]3CC[C@@H]12 ; retrieve measured z-score.
Response: 0.332 (inactive)

---

Overview of recorded composite z-score for various molecules
Test: small-molecule microarray binders of probe aLefty2, primary screen, biochemical, biotinylated probe, 635/667 nm fluorescence (AID 1094);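 note: score merges spot fluorescence near 667 nm with spot signal-to-noise ratio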
Conditions: higher = more signal
Answer with a bare number; do not write a unit.

# count of solved cases: 4
CO[C@H]1COC(=O)CC=C[C@H](C)COC(=O)[C@@H](C)NC(=O)CC=C[C@@H]1C: -0.289
CCOC(=O)CCN1C(=O)[C@H]2[C@H]3[C@H](O)[C@H](O)CC(=NOCc4ccccc4)[C@H]3CC[C@H]2C1=O: 0.58
CC(CCN1CCc2nc(-c3ccccc3)c(-c3ccccc3)cc2C1)=NOC[C@@H](O)[C@H]1O[C@@H]2OC(C)(C)O[C@@H]2[C@H]1O: -0.342
COc1cccc([C@H]2Oc3ccc(OC)cc3C(=NOC[C@@H](C)[C@H](OCc3ccccc3)C(C)C)[C@@H]2O)c1: -0.341

Request: Query (molecule): CC(C)CON=C1C[C@@H](O)[C@@H](O)[C@@H]2[C@@H]3C(=O)N(c4cccc(Oc5ccccc5)c4)C(=O)[C@@H]3CC[C@@H]12 ; field requested: composite z-score
Response: -0.131

Request: If you can, please state the reported composite z-score value of CCOC(=O)[C@H](CC(C)C)NC(=O)CCC1CC(OC(=O)NCc2cccc3ccccc23)CC2(CCCC(COC(=O)NCCC(C)C)O2)O1 (some centres not stated) .
Response: -0.221

Request: Reported composite z-score, molecule COc1cccc([C@H]2Oc3ccc(OC)cc3C(=NOC[C@@H](O)[C@H]3O[C@@H]4OC(C)(C)O[C@@H]4[C@H]3O)[C@@H]2O)c1 : ____
Response: -0.0616

---

Assay: binders of probe aFST on microarray, primary screen, stem cell growth factor project, biochemical, small-molecule microarray, fluorescence 635/667 (AID 1086);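 note: score merges 667 nm fluorescence with signal-to-noise of each printed compound spot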
Settings: higher = more signal
# Lookup of reported composite z-score keyed by entry

Request: Look up composite z-score: CCN1C(=O)[C@H]2[C@H]3[C@H](O)[C@H](O)CC(=NOCC(C)C)[C@@H]3CC[C@H]2C1=O
Response: 0.124

Request: Which composite z-score is listed for O=C(NN=C1C[C@@H](O)[C@@H](O)[C@@H]2[C@@H]3C(=O)N(C[C@@H]4CCCO4)C(=O)[C@@H]3CC[C@H]12)OCc1ccccc1 ?
Response: 0.556

Request: Query (compound): C=C(C)C(=O)OCC1CN2[C@@H](CC[C@@H](C)[C@@H]2c2ccc(Br)cc2)C(=O)O1 (some centres undefined) ; field requested: composite z-score
Response: 0.444

Request: What measured composite z-score goes with CC(=O)OC[C@H]1O[C@H](CCON=C2[C@H]3CCn4c(=O)n(-c5ccccc5)c(=O)n4[C@H]3[C@H](O)[C@@H]3O[C@H]23)C=C[C@@H]1OC(C)=O ?
Response: 0.476

Attribution: PubChem BioAssay
